# Target Entity: T1, IL10Rα and IL2Rγ on human primary cells (CD8 T cells, CD4 T cells, monocytes) (human) (UniProt Q13651)
# T1 sequence (looked up) 1: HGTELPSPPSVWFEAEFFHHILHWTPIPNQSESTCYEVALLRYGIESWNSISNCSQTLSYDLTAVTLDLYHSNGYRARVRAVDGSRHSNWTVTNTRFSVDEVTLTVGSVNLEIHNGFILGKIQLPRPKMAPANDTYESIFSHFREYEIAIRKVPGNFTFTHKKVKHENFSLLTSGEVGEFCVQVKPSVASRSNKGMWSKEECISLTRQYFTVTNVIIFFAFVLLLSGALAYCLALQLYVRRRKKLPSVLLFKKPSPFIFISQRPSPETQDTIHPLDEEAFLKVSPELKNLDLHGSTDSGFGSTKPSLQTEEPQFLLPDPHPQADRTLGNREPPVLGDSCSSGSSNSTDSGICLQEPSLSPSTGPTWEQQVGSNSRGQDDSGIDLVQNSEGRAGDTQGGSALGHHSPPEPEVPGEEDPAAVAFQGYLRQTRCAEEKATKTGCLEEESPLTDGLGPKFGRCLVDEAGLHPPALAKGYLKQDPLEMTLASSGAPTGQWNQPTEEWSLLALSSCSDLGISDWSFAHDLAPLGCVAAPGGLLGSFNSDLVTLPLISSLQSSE
# T1 sequence (looked up) 2: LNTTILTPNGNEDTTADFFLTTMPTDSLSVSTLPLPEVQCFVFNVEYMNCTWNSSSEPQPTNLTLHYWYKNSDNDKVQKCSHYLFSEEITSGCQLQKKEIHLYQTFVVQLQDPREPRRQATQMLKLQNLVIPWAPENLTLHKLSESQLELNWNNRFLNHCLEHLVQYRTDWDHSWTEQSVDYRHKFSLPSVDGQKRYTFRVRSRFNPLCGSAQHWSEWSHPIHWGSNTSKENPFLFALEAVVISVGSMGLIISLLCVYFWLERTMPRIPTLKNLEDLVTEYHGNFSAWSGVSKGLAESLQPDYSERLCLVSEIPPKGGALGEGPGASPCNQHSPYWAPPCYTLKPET
# Assay Method Text: cell-based or functional assay
Would you kindly list pSTAT3 (MFI) in CD4 T cells at 100 µM for each of these binders?

Exercise: Which pSTAT3 (MFI) in CD4 T cells at 100 µM is reported for this binder? hIL10Ra_VHH14-hIL2Rg_VHH19, linker GS, tag his (bispecific antibody, not shown: small tags and cut ends) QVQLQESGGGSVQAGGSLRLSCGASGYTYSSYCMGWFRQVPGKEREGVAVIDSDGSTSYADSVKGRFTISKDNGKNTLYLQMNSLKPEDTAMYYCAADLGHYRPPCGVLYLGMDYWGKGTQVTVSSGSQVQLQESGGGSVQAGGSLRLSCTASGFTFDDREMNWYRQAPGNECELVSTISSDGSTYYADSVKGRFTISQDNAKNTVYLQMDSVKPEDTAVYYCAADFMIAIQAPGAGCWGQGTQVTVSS
Solution: 11600 MFI

Exercise: Which pSTAT3 (MFI) in CD4 T cells at 100 µM is reported for this binder? hIL10Ra_VHH14-hIL2Rg_VHH19, linker GGSGGS, tag his (bispecific antibody, not shown: small tags and cut ends) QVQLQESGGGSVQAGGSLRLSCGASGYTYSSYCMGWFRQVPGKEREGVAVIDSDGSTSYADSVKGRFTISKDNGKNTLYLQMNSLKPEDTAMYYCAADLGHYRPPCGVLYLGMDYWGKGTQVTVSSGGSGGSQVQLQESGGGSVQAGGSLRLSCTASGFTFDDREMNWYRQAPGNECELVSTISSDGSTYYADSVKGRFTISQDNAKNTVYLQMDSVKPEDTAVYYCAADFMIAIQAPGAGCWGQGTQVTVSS
Solution: 10200 MFI

These data points were gathered from patent US20250163162A1.
